These measurements were taken from patent US8685970B2.

target: UniProt:Q96EB6; test: Mass spectrometry based SIRT1 deacetylation assay (activation); type: biochemical; conditions: 10 nM SIRT1, 0.5 μM peptide substrate, 120 μM βNAD+, 25 min at 25° C.
Sequence (Q96EB6 whole entry): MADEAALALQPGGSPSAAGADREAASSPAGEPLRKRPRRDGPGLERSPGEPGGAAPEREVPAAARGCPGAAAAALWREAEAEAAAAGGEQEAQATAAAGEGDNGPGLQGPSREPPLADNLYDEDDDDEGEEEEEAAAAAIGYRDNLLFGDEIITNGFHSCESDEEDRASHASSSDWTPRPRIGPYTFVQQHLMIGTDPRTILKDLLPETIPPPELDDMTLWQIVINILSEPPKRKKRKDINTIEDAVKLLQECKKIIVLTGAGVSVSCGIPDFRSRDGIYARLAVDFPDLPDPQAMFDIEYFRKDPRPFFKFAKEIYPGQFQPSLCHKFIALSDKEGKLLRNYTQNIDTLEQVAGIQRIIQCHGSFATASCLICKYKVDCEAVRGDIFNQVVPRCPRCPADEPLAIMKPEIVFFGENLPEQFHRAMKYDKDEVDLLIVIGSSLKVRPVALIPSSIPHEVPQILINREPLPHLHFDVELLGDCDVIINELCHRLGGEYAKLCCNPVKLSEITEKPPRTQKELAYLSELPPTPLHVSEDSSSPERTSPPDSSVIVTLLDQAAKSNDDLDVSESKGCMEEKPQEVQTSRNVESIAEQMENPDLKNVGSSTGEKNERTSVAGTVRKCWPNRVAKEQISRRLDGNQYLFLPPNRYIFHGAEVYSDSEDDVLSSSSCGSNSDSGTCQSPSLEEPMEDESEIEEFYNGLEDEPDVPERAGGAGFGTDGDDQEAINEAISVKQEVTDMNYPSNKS
Measurement Type: EC1.5 (concentration of test compound that results in 150% activation of SIRT1)

# count of solved cases: 5
molecule_smiles=O=C(Nc1ccccn1)c1cccc2ccc(-c3ccccc3C(F)(F)F)nc12 observed="B (EC1.5 1-25 uM)"
molecule_smiles=FC(F)(F)c1cccc(-c2ccc3cccc(CNc4cccnc4)c3n2)c1 observed="C (EC1.5>25 uM)"
molecule_smiles=Cc1cc(NC(=O)c2cccc3ccc(-c4cccc(N5CCOCC5)c4)nc23)sn1 observed="A (EC1.5<1.0 uM)"
molecule_smiles=Cc1cncc(-c2ccc3cccc(C(=O)Nc4cccc(CN5CCOCC5)c4)c3n2)c1 observed="A (EC1.5<1.0 uM)"
molecule_smiles=O=C(Nc1cccc2ccc(-c3ccccc3)nc12)c1cscn1 observed="B (EC1.5 1-25 uM)"

Prompt: I'd like to know its EC1.5 (concentration of test compound that results in 150% activation of SIRT1). The compound in question is "Cn1cnc(C(=O)Nc2cccc3ccc(-c4cccc(C(F)(F)F)c4)nc23)c1"
Response: A (EC1.5<1.0 uM)

Prompt: I'd like to know its EC1.5 (concentration of test compound that results in 150% activation of SIRT1). The compound in question is "Cc1noc(C)c1NC(=O)c1cccc2ccc(-c3cccc(C(F)(F)F)c3)nc12"
Response: C (EC1.5>25 uM)

Prompt: I'd like to know its EC1.5 (concentration of test compound that results in 150% activation of SIRT1). The compound in question is "O=C(Nc1ccccn1)c1cccc2ncc(-c3ccccc3)nc12"
Response: B (EC1.5 1-25 uM)
